System: cucumber downy mildew
Test Name: Protectant activity in vivo (whole plant) against cucumber downy mildew
Conditions: 12.5 mg/L
Assay Metric: the protectant activity (%) against cucumber downy mildew

Record Smiles	Target System	Observed Measurement
N#Cc1ccc(Nc2c(Cl)c(Cl)c(C#N)c(Cl)c2C#N)cc1C(F)(F)F	cucumber downy mildew	30
N#Cc1c(Cl)c(Cl)c(Nc2c(Br)cc([N+](=O)[O-])cc2Br)c(C#N)c1Cl	cucumber downy mildew	30
N#Cc1c(Cl)c(Cl)c(Nc2ccc(C(F)(F)F)cc2Cl)c(C#N)c1Cl	cucumber downy mildew	20
N#Cc1c(Cl)c(Cl)c(Nc2ccc([N+](=O)[O-])cc2Cl)c(C#N)c1Cl	cucumber downy mildew	98
N#Cc1c(Cl)c(Cl)c(Nc2cc(C(F)(F)F)ccc2Cl)c(C#N)c1Cl	cucumber downy mildew	30
N#Cc1c(Cl)c(Cl)c(Nc2c(Cl)cncc2Cl)c(C#N)c1Cl	cucumber downy mildew	100
Cc1cc([N+](=O)[O-])cc(Cl)c1Nc1c(Cl)c(Cl)c(C#N)c(Cl)c1C#N	cucumber downy mildew	98
N#Cc1c(Cl)c(Cl)c(Nc2cc(Cl)cnc2Cl)c(C#N)c1Cl	cucumber downy mildew	95

###

Reported values of pest or weed control at 50 µg/mL for individual entries
System: cucumber downy mildew
Test Name: Protectant activity in vivo (whole plant) against cucumber downy mildew
Conditions: Cucumis sativus, 168 h; 50 mg/L; read-out: the protectant activity (%) against cucumber downy mildew
Method: The method is as followed: The whole plant is used in this test. The compound is dissolved in a proper solvent to get mother solution. The proper solvent is selected from acetone, methanol, DMF and so on according to their dissolving capability to the sample. The volume rate of solvent and testing solution (v/v) is equal to or less than 5%. The mother solution is diluted with water containing 0.1% tween-80 to get the testing solution whose concentration is designed. […]
Assay Metric: pest or weed control at 50 µg/mL

Compound	Observed Measurement
Cc1ccc(Nc2c(F)c(F)c(C#N)c(F)c2C#N)cc1 [KC9]	30%
N#Cc1c(Cl)c(Cl)c(Nc2ccccc2)c(Cl)c1C#N [KC14]	0%
N#Cc1c(F)c(F)c(Nc2ccc([N+](=O)[O-])cc2)c(C#N)c1F [KC11]	0%
N#Cc1c(F)c(Cl)c(Nc2ccccc2)c(C#N)c1F [KC17]	0%
COc1ccc(Nc2c(F)c(F)c(C#N)c(C#N)c2F)c(OC)c1 [KC27]	0%
N#Cc1c(F)c(Cl)c(Nc2ccc([N+](=O)[O-])cc2)c(C#N)c1F [KC22]	0%
N#Cc1c(Cl)c(Cl)c(C#N)c(Cl)c1Cl [STM-1]	0%
N#Cc1c(F)c(F)c(Nc2ccccc2)c(F)c1C#N [KC13]	0%
N#Cc1c(Cl)c(Cl)c(C#N)c(Nc2ccccc2)c1Cl [KC15]	10%

###

We begin with a simple list: items and their reported inhibition at 8.3 µg/mL.
Test system: cucumber gray mold
Test Name: Activity in vitro (96-well, High Through Put): inhibition rate against cucumber gray mold
Format: cell-based
Conditions: 8.3 mg/L; read-out: the inhibition rate against cucumber gray mold (%)
Assay Metric: inhibition at 8.3 µg/mL

Record Smiles	Target System	Assay Metric	Observed Measurement
CCOc1ccccc1Nc1c(F)c(F)c(C#N)c(C#N)c1F	cucumber gray mold	inhibition at 8.3 µg/mL	0%
N#Cc1c(Cl)c(Cl)c(Nc2ccccc2)c(C#N)c1Cl	cucumber gray mold	inhibition at 8.3 µg/mL	0%
Cc1ccc(Nc2c(Cl)c(F)c(C#N)c(F)c2C#N)cc1	cucumber gray mold	inhibition at 8.3 µg/mL	0%

Cited source for all entries: patent US8937072B2
